# Assayed target: furin, P09958;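 further: purified furin at 1:10 enzyme:substrate in 50 mM HEPES pH 7.5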
# Sequence (P09958 whole entry): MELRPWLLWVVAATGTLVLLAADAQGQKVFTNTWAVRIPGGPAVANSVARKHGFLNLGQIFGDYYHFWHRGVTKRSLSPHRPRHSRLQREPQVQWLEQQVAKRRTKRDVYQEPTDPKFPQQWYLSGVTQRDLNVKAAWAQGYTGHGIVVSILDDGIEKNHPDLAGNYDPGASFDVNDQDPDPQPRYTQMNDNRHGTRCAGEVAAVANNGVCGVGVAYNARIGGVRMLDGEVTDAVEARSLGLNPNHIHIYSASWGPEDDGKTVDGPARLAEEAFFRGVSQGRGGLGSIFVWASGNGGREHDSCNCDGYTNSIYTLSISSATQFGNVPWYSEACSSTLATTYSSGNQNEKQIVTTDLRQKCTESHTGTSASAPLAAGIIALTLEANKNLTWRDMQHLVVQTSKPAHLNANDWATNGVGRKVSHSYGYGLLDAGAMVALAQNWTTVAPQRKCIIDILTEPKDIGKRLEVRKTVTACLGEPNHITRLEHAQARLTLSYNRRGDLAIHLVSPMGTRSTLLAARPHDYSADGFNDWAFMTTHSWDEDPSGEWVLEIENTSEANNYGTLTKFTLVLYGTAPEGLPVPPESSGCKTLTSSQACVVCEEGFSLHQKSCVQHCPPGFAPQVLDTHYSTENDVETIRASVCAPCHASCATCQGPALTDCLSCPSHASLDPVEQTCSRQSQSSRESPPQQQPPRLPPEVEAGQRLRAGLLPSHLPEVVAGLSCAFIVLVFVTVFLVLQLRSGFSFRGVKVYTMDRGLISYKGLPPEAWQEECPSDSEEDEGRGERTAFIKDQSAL
# Assay: furin cleavage Z-score vs untreated control; higher = more cleavage, active = 3.5 or more, inactive = 1 or less, 8 variable residues between constant flanks
# Particulars: 7.5 min
Some of the results follow. The hit rate among all sequences tested is not known here.
Outcomes: active, inactive

Chain sequence	Category label
CAVATDALMTAGNASASA [HC878]	inactive
CAVGRRYRRTAGNASASA [FS-387]	active
CARGRREARRAGNASASA [FS-2936]	active
CAQPRRHRRPAGNASASA [FS-1250]	inactive
CAQSSRHRRAAGNASASA [FS-851]	active
CAQSSRQPRPAGNASASA [FS-141]	inactive
CAPGRRRRRTAGNASASA [FS-1381]	active
